Target: human PPARγ1 (Homo sapiens, UniProt P37231)
Construct: crude supernatant of the lysate, not purified
Sequence (P37231 1-477 isoform P37231-2): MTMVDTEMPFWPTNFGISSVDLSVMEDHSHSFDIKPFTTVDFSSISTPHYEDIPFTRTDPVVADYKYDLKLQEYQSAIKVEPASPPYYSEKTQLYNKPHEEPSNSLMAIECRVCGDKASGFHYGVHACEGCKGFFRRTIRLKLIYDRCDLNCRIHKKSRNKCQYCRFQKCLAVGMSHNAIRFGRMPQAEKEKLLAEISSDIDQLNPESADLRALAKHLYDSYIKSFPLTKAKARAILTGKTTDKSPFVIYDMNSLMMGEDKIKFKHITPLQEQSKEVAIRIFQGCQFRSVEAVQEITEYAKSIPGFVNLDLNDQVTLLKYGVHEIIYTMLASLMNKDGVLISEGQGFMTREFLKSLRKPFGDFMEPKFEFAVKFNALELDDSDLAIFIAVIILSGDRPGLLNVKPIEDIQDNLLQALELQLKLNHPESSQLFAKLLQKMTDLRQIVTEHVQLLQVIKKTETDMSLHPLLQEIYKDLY
Experiment: Measurement of human PPARγ1 binding activity ([3H]-compound A displacement)
Conditions: cell extract with 1.5 μg/ml full length hPPARγ1, 20 nM [3H]-compound A, 4° C., 16 hrs
reported.metric: IC50 (nM)
Provide only the numeric value, understood in nM.

Worked examples, 2 molecules total:
CCc1nc(/C=C/c2cn(-c3ccccc3)nc2OCc2ccc(OCc3nc(-c4ccc(CC(=O)O)cc4)oc3C)c(OC)c2)cs1 [Example 337] : 66
CCOP(=O)(/C=C/c1cn(-c2ccccc2)nc1OCc1ccc(OCc2nc(-c3cccc(C(=O)O)c3)oc2C)c(OC)c1)OCC [Example 203] : 4.8

// next entry
// COc1cc(COc2nn(-c3ccccc3)cc2/C=C/c2csc(C)n2)ccc1OCc1nc(-c2ccco2)oc1C [Example 150 (E form)] : IC50 value = 50

* * *

Target: human PPARγ1 (Homo sapiens)
Construct: expressed in transfected cells; host or cells: CHO-K1 cells stably transfected with pVgRXR2-hPPARγ and reporter plasmid pGL3-4ERPP-TK neo
Sequence (P37231 1-477 isoform P37231-2): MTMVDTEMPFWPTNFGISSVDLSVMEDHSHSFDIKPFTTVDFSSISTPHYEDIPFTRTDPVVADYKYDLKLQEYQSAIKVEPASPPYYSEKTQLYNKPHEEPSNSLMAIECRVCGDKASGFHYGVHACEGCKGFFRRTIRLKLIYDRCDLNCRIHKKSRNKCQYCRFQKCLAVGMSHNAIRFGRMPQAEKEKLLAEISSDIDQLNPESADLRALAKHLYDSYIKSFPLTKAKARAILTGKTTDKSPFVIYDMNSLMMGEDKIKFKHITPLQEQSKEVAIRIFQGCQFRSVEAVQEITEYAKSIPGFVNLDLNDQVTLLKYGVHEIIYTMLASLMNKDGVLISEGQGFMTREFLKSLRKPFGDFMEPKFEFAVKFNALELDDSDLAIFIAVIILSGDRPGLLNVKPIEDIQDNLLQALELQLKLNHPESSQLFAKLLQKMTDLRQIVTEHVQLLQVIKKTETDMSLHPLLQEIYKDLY
Sequence (P19793 1-462 partner): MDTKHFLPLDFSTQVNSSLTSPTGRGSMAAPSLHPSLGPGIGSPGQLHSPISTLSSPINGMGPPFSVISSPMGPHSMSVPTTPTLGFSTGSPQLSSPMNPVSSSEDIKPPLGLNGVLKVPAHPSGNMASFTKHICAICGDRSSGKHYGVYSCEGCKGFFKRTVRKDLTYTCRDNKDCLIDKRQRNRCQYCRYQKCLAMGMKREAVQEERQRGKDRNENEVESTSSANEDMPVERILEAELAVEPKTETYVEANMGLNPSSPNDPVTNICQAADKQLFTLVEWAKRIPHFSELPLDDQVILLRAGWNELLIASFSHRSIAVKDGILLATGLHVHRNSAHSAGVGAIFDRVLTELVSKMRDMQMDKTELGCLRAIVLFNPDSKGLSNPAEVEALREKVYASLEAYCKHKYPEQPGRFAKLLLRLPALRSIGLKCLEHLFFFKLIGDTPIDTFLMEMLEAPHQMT
Test: Human PPARγ1 antagonist assay (luciferase reporter in PPARγ:RXRα:4ERPP/CHO-K1 cells)
Assay type: cell-based
Conditions: test compound 10^−6 M, 10 nM compound A as stimulant, luciferase activity, 24 hrs, read-out: Inhibitory rate (%)
reported.metric: inhibition at 1 µM (%)
Give your result in % as a bare value.

In the examples that follow, each entry is paired with its recorded inhibition at 1 µM.
CCOP(=O)(/C=C/c1cn(-c2ccccc2)nc1OCc1ccc(OCc2csc(N3CCOCC3)n2)c(OC)c1)OCC : 79
CCOP(=O)(/C=C/c1cn(-c2ccccc2)nc1OCc1ccc(OCc2nc(-c3ccccc3)oc2C)c(OC)c1)OCC : 111
CCn1cnc(/C=C/c2cn(-c3ccccc3)nc2OCc2ccc(OCc3nc(-c4ccc(CC(=O)O)cc4)oc3C)c(OC)c2)c1 : 103
COc1cc(COc2nn(-c3ccccc3)cc2/C=C/P(=O)(OC(C)C)OC(C)C)ccc1OCc1nc(-c2ccco2)oc1C : 96

Form field inhibition at 1 µM, entry COc1cc(COc2nn(-c3ccccc3)cc2CO)ccc1OCc1nc(-c2ccco2)oc1C : 70

Notebook: CCOP(=O)(/C=C/c1cn(-c2ccccc2)nc1OCc1ccc(OCc2nc(-c3cccc(-c4nnn[nH]4)c3)oc2C)c(OC)c1)OCC , inhibition at 1 µM read as 102

Looking up CCC(=O)/C=C/c1cn(-c2ccccc2)nc1OCc1ccc(OCc2nc(-c3ccco3)oc2C)c(OC)c1 , I found its inhibition at 1 µM recorded as 66

inhibition at 1 µM reported for this compound CCOP(=O)(/C=C/c1cn(-c2ccccc2)nc1OCc1ccc(OCc2nc(-c3cccc(CC(=O)O)c3)oc2C)c(OC)c1)OCC : 108

Entry CCOP(=O)(/C=C/c1cn(-c2ccccc2)nc1OCc1ccc(OCc2nc(-c3cccc(C(=O)OC)c3)oc2C)c(OC)c1)OCC ; inhibition at 1 µM = 110

# inhibition at 1 µM of CCc1nc(/C=C/c2cn(-c3ccccc3)nc2OCc2ccc(OCc3nc(-c4cccc(C(=O)O)c4)oc3C)c(OC)c2)cs1 = 112

* * *

reported.metric: melting point

# annotated cases, reported melting point shown
COc1cc(COc2nn(-c3ccccc3)cc2C(N)=O)ccc1OCc1nc(-c2ccco2)oc1C : 175 to 176 °C
CCOC(=O)Cc1ccc(-c2nc(COc3ccc(COc4nn(-c5ccccc5)cc4/C=C/c4csc(CC)n4)cc3OC)c(C)o2)cc1 : 140 to 141 °C
Cc1oc(-c2ccccc2)nc1COc1ccc(C(=O)Nc2nn(-c3ccccc3)cc2C=O)cc1 : 185 to 186 °C
COc1cc(COc2nn(-c3ccccc3)cc2C=O)ccc1OCc1nc(-c2cccnc2)oc1C : 161 to 162 °C
CCC(=O)/C=C/c1cn(-c2ccccc2)nc1OCc1ccc(OCc2nc(-c3ccco3)oc2C)c(OC)c1 : 167 to 168 °C
CCCc1nnc(Cc2cn(-c3ccccc3)nc2OCc2ccc(OCc3nc(-c4ccco4)oc3C)c(OC)c2)o1 : 102 to 103 °C
COC(=O)c1cccc(-c2nc(COc3ccc(COc4nn(-c5ccccc5)cc4C=O)cc3)c(C)o2)c1 : 161 to 162 °C
CCOC(=O)Cc1ccc(-c2nc(COc3ccc(COc4nn(-c5ccccc5)cc4/C=C/c4cn(CC)cn4)cc3OC)c(C)o2)cc1 : 140 to 141 °C
COc1cc(COc2cc(C=O)n(-c3ccccc3)n2)ccc1OCc1nc(-c2ccccc2)oc1C : 119 to 120 °C
Cc1oc(-c2ccco2)nc1COc1ccc(COc2nn(Cc3ccccc3)cc2C=O)cc1OCc1ccccc1 : 130 to 131 °C

For the next question, use this compound.
get_value(item= COc1cc(COc2nn(Cc3ccccc3)cc2/C=C/C(=O)O)ccc1OCc1nc(-c2ccco2)oc1C , readout=melting point) returns 175 to 176 °C

* * *

Form field: melting point (one value per entry).

Past entries and their recorded results:
COc1cc(COc2nn(Cc3ccccc3)cc2CO)ccc1OCc1nc(-c2ccco2)oc1C : 104 to 105 °C
CCOP(=O)(/C=C/c1cn(-c2ccccc2)nc1OCc1ccc(OCc2nc(-c3ccco3)oc2C)c(C(=O)O)c1)OCC : 169 to 170 °C
COc1cc(COc2nn(-c3ccccc3)cc2C#N)ccc1OCc1nc(-c2ccccc2)oc1C : 174 to 175 °C

Please turn your attention to the following entry.
Reported melting point for CCOC(=O)Cc1ccc(-c2nc(COc3ccc(COc4nn(-c5ccccc5)cc4/C=C\c4csc(CC)n4)cc3OC)c(C)o2)cc1 was 136 to 137 °C

* * *

Measured melting point, listed per entry.

Example entries begin here.
CCOP(=O)(/C=C/c1cn(-c2ccccc2)nc1OCc1ccc(OCc2nc(-c3ccco3)oc2C)cc1)OCC : 131 to 132 °C
COc1cc(COc2nn(-c3ccccc3)cc2/C=C/[S+](C)[O-])ccc1OCc1nc(-c2ccco2)oc1C (centres unmarked) [Example 128 (E form)] : 156 to 157 °C
CCCc1nnc(/C=C/c2nc(-c3ccccc3)oc2COc2ccc(OCc3nc(-c4ccccc4)oc3C)cc2)o1 : 119 to 120 °C
COc1cc(COc2nn(-c3ccccc3)cc2C(=O)O)ccc1OCc1nc(-c2ccco2)oc1C : 184 to 185 °C
Cc1oc(-c2ccco2)nc1COc1ccc(COc2nn(Cc3ccccc3)cc2C(N)=O)cc1 : 139 to 140 °C
CCOC(=O)/C=C/c1cn(-c2ccccc2)nc1OCc1ccc(OCc2nc(-c3ccco3)oc2C)cc1 : 142 to 143 °C
Cc1oc(-c2ccccc2)nc1COc1ccc(OCc2oc(-c3ccccc3)nc2/C=C/C(=O)O)cc1 : 209 to 210 °C

Continue with the molecule presented below.
# melting point of CCOC(=O)c1cn(Cc2ccccc2)nc1OCc1cccc(OCc2nc(-c3ccco3)oc2C)c1 = 92 to 93 °C
